system: DMS-114 (Small Cell Lung Carcinoma); experiment: combination Emax (second highest fraction inhibited in the dose matrix, 72 h); higher = more inhibition; extreme values may be limits of the assay
In this section we review reported combination Emax values for a set of compounds.

compound: CC(=O)Nc1cccc(-n2c(=O)n(C3CC3)c(=O)c3c(Nc4ccc(I)cc4F)n(C)c(=O)c(C)c32)c1 [Trametinib] + Cc1nc(-c2cn3c(n2)-c2ccc(-c4cnn(C(C)(C)C(N)=O)c4)cc2OCC3)n(C(C)C)n1 [Taselisib] (first compound max 1 µM, 7x7, partner max 10 µM)
combination Emax: 0.668

compound: NC1(C(=O)N[C@@H](CCO)c2ccc(Cl)cc2)CCN(c2ncnc3[nH]ccc23)CC1 [Capivasertib] + CCN(CCO)CCCOc1ccc2c(Nc3cc(CC(=O)Nc4cccc(F)c4)[nH]n3)ncnc2c1 [AZD2811] (first compound max 10 µM, 7x7, partner max 1 µM)
combination Emax: 0.456

compound: COc1cccc(OCCCN)c1-c1cc(Nc2cnc(C#N)cn2)n[nH]1 [Prexasertib] + O=C(c1cc(Cc2n[nH]c(=O)c3ccccc23)ccc1F)N1CCN(C(=O)C2CC2)CC1 [Olaparib] (first compound max 1 µM, 7x7, partner max 10 µM)
combination Emax: 0.412

compound: Cn1cnc2c(F)c(Nc3ccc(Br)cc3Cl)c(C(=O)NOCCO)cc21 [Selumetinib] + CCN(CCO)CCCOc1ccc2c(Nc3cc(CC(=O)Nc4cccc(F)c4)[nH]n3)ncnc2c1 [AZD2811] (first compound max 10 µM, 7x7, partner max 1 µM)
combination Emax: 0.281

compound: COc1cc2c(cc1OCCCCCOc1cc3c(cc1OC)C(=O)N1C=C(C)C[C@H]1C=N3)N=C[C@@H]1CC(C)=CN1C2=O [SG3199] + O=C(c1cc(Cc2n[nH]c(=O)c3ccccc23)ccc1F)N1CCN(C(=O)C2CC2)CC1 [Olaparib] (first compound max 0.001 µM, 7x7, partner max 10 µM)
combination Emax: 0.0991
